# Assayed System: feline FcRn complex (FcRn-α subunit and β-microglobulin), biotin labeled (feline)
# Test Details: SPR, pH 6
Below is a list of entries, each paired with its recorded Kd value.
// return numeric value only (unit: nM, not printed)

• feline IgG1a S252R (antibody, part only; not given: Variable domains, not shown: another chain or arm of the molecule) constant: ASTTAPSVFPLAPSCGTTSGATVALACLVLGYFPEPVTVSWNSGALTSGVHTFPAVLQASGLYSLSSMVTVPSSRWLSDTFTCNVAHPPSNTKVDKTVRKTDHPPGPKPCDCPKCPPPEMLGGPSIFIFPPKPKDTLRISRTPEVTCLVVDLGPDDSDVQITWFVDNTQVYTAKTSPREEQFNSTYRVVSVLPILHQDWLKGKEFKCKVNSKSLPSPIERTISKAKGQPHEPQVYVLPPAQEELSRNKVSVTCLIKSFHPPDIAVEWEITGQPEPENNYRTTPPQLDSDGTYFVYSKLSVDRSHWQRGNTYTCSVSHEALHSHHTQKSLTQSPGK = 1.48

Read the next record carefully.
[Q] What value of Kd has been reported for the following binder? feline IgG1a S428L (antibody, part only; not given: Variable domains, not shown: another chain or arm of the molecule) constant: ASTTAPSVFPLAPSCGTTSGATVALACLVLGYFPEPVTVSWNSGALTSGVHTFPAVLQASGLYSLSSMVTVPSSRWLSDTFTCNVAHPPSNTKVDKTVRKTDHPPGPKPCDCPKCPPPEMLGGPSIFIFPPKPKDTLSISRTPEVTCLVVDLGPDDSDVQITWFVDNTQVYTAKTSPREEQFNSTYRVVSVLPILHQDWLKGKEFKCKVNSKSLPSPIERTISKAKGQPHEPQVYVLPPAQEELSRNKVSVTCLIKSFHPPDIAVEWEITGQPEPENNYRTTPPQLDSDGTYFVYSKLSVDRSHWQRGNTYTCSVLHEALHSHHTQKSLTQSPGK
[A] 81.5
